Ref: patent US20240270762A1

- Tested on: A. baumannii CDC-0033
- Experiment Notes: microbe, parasite or virus in culture
- Format: cell-based
- Cond: Acinetobacter baumannii, CDC0033, read-out: MIC, A. baumannii CDC-0033
Form field: MIC (one value per entry).

O=C(NCCN1CCN(C(=O)NC(C(=O)N[C@H]2Cc3ccc(F)c(C(=O)O)c3OB2O)c2cc(F)c(O)c(O)c2Cl)C1=O)c1nccs1 (stereo partly shown) = 2 to 4 µg/mL
O=C(O)c1c(F)ccc2c1OB(O)[C@@H](NC(=O)[C@H](NC(=O)N1CCN(C3CCN(C(=O)c4cc(O)ccc4F)CC3)C1=O)c1cc(F)c(O)c(O)c1Cl)C2 (single isomer, unassigned) = < 1 µg/mL
O=C(O)c1c(F)ccc2c1OB(O)[C@@H](NC(=O)[C@H](NC(=O)N1CCN(C3CCN(C(=O)Nc4ccc(O)cc4)CC3)C1=O)c1cc(F)c(O)c(O)c1Cl)C2 (single isomer, unassigned) = < 1 µg/mL

Query string: Tell me measured MIC for O=C(NCCCN1CCN(C(=O)NC(C(=O)N[C@H]2Cc3ccc(F)c(C(=O)O)c3OB2O)c2cc(F)c(O)c(O)c2Cl)C(=O)C1=O)Nc1ccc(O)cc1 (stereo partly shown) please.
Result string: 2 to 4 µg/mL

Query string: Specify measured MIC for `O=C(NCCCN1CCN(C(=O)N[C@H](C(=O)N[C@H]2Cc3ccc(F)c(C(=O)O)c3OB2O)c2cc(F)c(O)c(O)c2Cl)C(=O)C1=O)c1cccc(O)c1Cl` .
Result string: > 128 µg/mL

Query string: Give MIC for the following compound: O=C(O)c1cccc2c1OB(O)[C@@H](NC(=O)C(NC(=O)N1CCN(Cc3ccc(O)c(O)c3Cl)C(=O)C1=O)c1ccc(P(=O)(O)O)cc1)C2 (stereo partly shown)
Result string: < 1 µg/mL

Query string: Provide MIC value for the following compound: O=C(NCCCS(=O)(=O)N1CCN(C(=O)NC(C(=O)N[C@H]2Cc3ccc(F)c(C(=O)O)c3OB2O)c2cc(F)c(O)c(O)c2Cl)C1=O)Nc1cccc(O)c1 (stereo partly shown)
Result string: 2 to 4 µg/mL

Query string: Give the value of MIC reported for the following: O=C(O)c1c(F)ccc2c1OB(O)[C@@H](NC(=O)[C@H](NC(=O)N1CCN(C3CCN(C(=O)c4cc(O)ccc4Cl)CC3)C1=O)c1cc(F)c(O)c(O)c1Cl)C2 (single isomer, unassigned)
Result string: < 1 µg/mL

Query string: Provide MIC value for the following compound: O=C(CN1CCN(C(=O)NC(C(=O)N[C@H]2Cc3ccc(F)c(C(=O)O)c3OB2O)c2cc(F)c(O)c(O)c2Cl)C(=O)C1=O)NCc1cccc(O)c1 (stereo partly shown)
Result string: 8 to 16 µg/mL

Query string: Find the measured MIC of O=C(NCCCS(=O)(=O)N1CCN(C(=O)NC(C(=O)N[C@H]2Cc3ccc(F)c(C(=O)O)c3OB2O)c2cc(F)c(O)c(O)c2Cl)C1=O)c1cccnc1 (stereo partly shown) and report it.
Result string: 2 to 4 µg/mL

====

- Tested on: A. baumannii CDC-0083
- Experiment Notes: microbe, parasite or virus in culture
- Type: cell-based
- Cond: Acinetobacter baumannii, CDC0083, read-out: MIC, A. baumannii CDC-0083
Metric Name: MIC

Sample answers from the record:
O=C(O)c1c(F)ccc2c1OB(O)[C@@H](NC(=O)C(NC(=O)N1CCN(Cc3ccc(O)c(O)c3Cl)C(=O)C1=O)c1ccc(P(=O)(O)O)c(F)c1)C2 (some centres unmarked) = < 1 mg/L
O=C(CN1CCN(C(=O)NC(C(=O)N[C@H]2Cc3ccc(F)c(C(=O)O)c3OB2O)c2cc(F)c(O)c(O)c2Cl)C(=O)C1=O)NCc1cccc(O)c1 (some centres unmarked) = > 128 mg/L
O=C(NCCN1CCN(C(=O)NC(C(=O)N[C@H]2Cc3ccc(F)c(C(=O)O)c3OB2O)c2cc(F)c(O)c(O)c2Cl)C(=O)C1=O)c1cccc(O)c1 (some centres unmarked) = > 128 mg/L
O=C(NCCS(=O)(=O)N1CCN(C(=O)N[C@@H](C(=O)N[C@H]2Cc3ccc(F)c(C(=O)O)c3OB2O)c2cc(F)c(O)c(O)c2Cl)C1=O)c1nccs1 = < 1 mg/L
O=C(NCCCN1CCN(C(=O)N[C@@H](C(=O)N[C@H]2Cc3ccc(F)c(C(=O)O)c3OB2O)c2cc(F)c(O)c(O)c2Cl)C(=O)C1=O)c1ccncc1 = < 1 mg/L

Query string: Recall the reported MIC of O=C(NCCCS(=O)(=O)N1CCN(C(=O)NC(C(=O)N[C@H]2Cc3ccc(F)c(C(=O)O)c3OB2O)c2cc(F)c(O)c(O)c2Cl)C1=O)c1ccncc1 (some centres unmarked) on A. baumannii CDC-0083 and write it down.
Result string: < 1 mg/L

Query string: Please report MIC with A. baumannii CDC-0083 for item O=C(NCCCN1CCN(C(=O)NC(C(=O)N[C@H]2Cc3ccc(F)c(C(=O)O)c3OB2O)c2cc(F)c(O)c(O)c2Cl)C(=O)C1=O)c1cc(O)ccc1F (some centres unmarked) .
Result string: < 1 mg/L

Query string: Under A. baumannii CDC-0083: report MIC of `O=C(NCCS(=O)(=O)N1CCN(C(=O)N[C@H](C(=O)N[C@H]2Cc3ccc(F)c(C(=O)O)c3OB2O)c2cc(F)c(O)c(O)c2Cl)C1=O)c1nccs1` .
Result string: 2 to 4 mg/L

Query string: Tell me its MIC on A. baumannii CDC-0083: O=C(NCCCN1CCN(C(=O)NC(C(=O)N[C@H]2Cc3ccc(F)c(C(=O)O)c3OB2O)c2cc(F)c(O)c(O)c2Cl)C1=O)Nc1ccncc1 (some centres unmarked)
Result string: < 1 mg/L

Query string: Give the observed MIC of `O=C(NCCCN1CCN(C(=O)N[C@@H](C(=O)N[C@H]2Cc3ccc(F)c(C(=O)O)c3OB2O)c2cc(F)c(O)c(O)c2Cl)C1=O)Nc1cccc(O)c1` for A. baumannii CDC-0083.
Result string: < 1 mg/L

Query string: For A. baumannii CDC-0083, give the measured MIC of the entry O=C(NCCCS(=O)(=O)N1CCN(C(=O)NC(C(=O)N[C@H]2Cc3ccc(F)c(C(=O)O)c3OB2O)c2cc(F)c(O)c(O)c2Cl)C1=O)c1cccnc1 (some centres unmarked)
Result string: < 1 mg/L
